Experiment: Human HepG2 cell viability assay in 384 well format
Format: toxicity, cell-based
Design: dose 125 nL, time 70.5 hour; concentration not given beside the values
Details: HepG2 cells, read-out: Inhibition
EXPERIMENTAL ENDPOINT: cytotoxicity at 70.5 h (%)
Reply with just the number (in %).

Query: Fill in the blank: the reported cytotoxicity at 70.5 h of O=C(Nc1cccnc1)[C@H]1C[C@@H]2CCN(Cc3nccs3)C[C@@H]2O1 is ____.
Response: -15.1

Query: Fill in the blank: the reported cytotoxicity at 70.5 h of Cc1ccc(C(=O)Nc2cn[nH]c2)cc1F is ____.
Response: 13.5

Query: Fill in the blank: the reported cytotoxicity at 70.5 h of CCCN(CC1COc2ccccc2O1)C(=O)C1=NN(C)C(=O)CC1 (stereo unspecified) is ____.
Response: -9.94

Query: Fill in the blank: the reported cytotoxicity at 70.5 h of CN(c1ncc(C(N)=O)cc1Cl)C1CCC(c2ccccc2)CC1 (stereo unspecified) is ____.
Response: -3.58

Query: Fill in the blank: the reported cytotoxicity at 70.5 h of CCn1ncc2c1CCCC2NCc1ccc2c(c1)OCCO2 (stereo unspecified) is ____.
Response: 4.09

Query: Fill in the blank: the reported cytotoxicity at 70.5 h of O=C(Cc1cc2c(cc1Br)OCCO2)NC1CCS(=O)(=O)C1 (stereo unspecified) is ____.
Response: 7.44

====

Assay: Human HepG2 cell viability assay in 384 well format
Format: toxicity, cell-based
Parameters: dose 125 nL, time 70.5 hour; concentration not given beside the values
Settings: HepG2 cells, read-out: Inhibition
EXPERIMENTAL ENDPOINT: cytotoxicity at 70.5 h

* O=S(=O)(C1CC1)N1CCc2ncnc(N3CCOCC3)c2CC1 | -7.75%
* Cc1c(CCC(=O)Nc2ccc(Br)cn2)cnn1C | -5.19%
* CC(C)CC(NC(=O)OC(C)(C)C)C(N)=O (stereo not given) | 20.5%
* CC(NCc1ccc(OCc2nccn2C)cc1)c1cccnc1 (stereo not given) | -9.04%

Query: Fill in the blank: the reported cytotoxicity at 70.5 h of Cc1nc(CN2CCCN(C(=O)c3cccnc3O)CC2)cs1 is ____.
Response: -4.77%

====

Assay: Human HepG2 cell viability assay in 384 well format
Assay type: toxicity, cell-based
Parameters: dose 125 nL, time 70.5 hour; concentration not given beside the values
Details: HepG2 cells, read-out: Inhibition
EXPERIMENTAL ENDPOINT: cytotoxicity at 70.5 h (%)
Reply with just the number (in %).

* Cc1cc(CNC(=O)C2CCN(CC(N)=O)CC2)cc(C)n1 | -6.5
* Nc1nc(C(=O)NCC2CCC3(CCNCC3)CO2)cs1 (configuration not stated) | -13.9
* CC(C)N1CCN(S(=O)(=O)c2ncn(C)c2Cl)CC1 | -4.74
* N#Cc1cccc(S(=O)(=O)NC(=O)c2csc(-c3ccco3)n2)c1 | 16.6
* CC(C)N1Cc2cccc(NCC(=O)N(C)C3CCCCC3)c2C1 | -0.0699

Query: Fill in the blank: the reported cytotoxicity at 70.5 h of CN(C)Cc1ccccc1Cn1cncc1-c1cnn(C)c1 is ____.
Response: -3.97

Query: Fill in the blank: the reported cytotoxicity at 70.5 h of CN(C)C(C(=O)N1CCCC1)c1ccccc1F (configuration not stated) is ____.
Response: -1.96

Query: Fill in the blank: the reported cytotoxicity at 70.5 h of Cn1ccnc1CCNS(=O)(=O)c1cccc(Br)c1 is ____.
Response: -2.62

Query: Fill in the blank: the reported cytotoxicity at 70.5 h of Cn1nnc2c1C(COCc1ccccn1)CN(Cc1ccoc1)C2 (configuration not stated) is ____.
Response: -12.1

Query: Fill in the blank: the reported cytotoxicity at 70.5 h of CCn1ncc2c1NC(=O)C(C#N)C21CCCC1 (configuration not stated) is ____.
Response: -11.6

Query: Fill in the blank: the reported cytotoxicity at 70.5 h of OC1CCCN(Cc2ccc(F)c3cccnc23)C1 (configuration not stated) is ____.
Response: -0.871

Query: Fill in the blank: the reported cytotoxicity at 70.5 h of Cc1cc(C)c(CNC(=O)NCC(O)COc2ccccc2)c(=O)[nH]1 (configuration not stated) is ____.
Response: 21.6

Query: Fill in the blank: the reported cytotoxicity at 70.5 h of Cc1nn(C)c(C)c1C1CCCN1C(=O)CCCc1ccccn1 (configuration not stated) is ____.
Response: -4.63

Query: Fill in the blank: the reported cytotoxicity at 70.5 h of CCCc1cc(NC(=O)c2ccc(Cl)c(N3CCNC3=O)c2)n[nH]1 is ____.
Response: 11.9

Query: Fill in the blank: the reported cytotoxicity at 70.5 h of Cc1ccc(N2CCC3(CC2)CCN(C2CCOC2)CC3)nn1 (configuration not stated) is ____.
Response: -6.73

Query: Fill in the blank: the reported cytotoxicity at 70.5 h of CC1c2ncc(Cn3cncn3)n2CCN1C(=O)c1ccccn1 (configuration not stated) is ____.
Response: 31.8

Query: Fill in the blank: the reported cytotoxicity at 70.5 h of CCc1nc(C2CCCN2CC(=O)Nc2sc(C)c(C)c2C)no1 (configuration not stated) is ____.
Response: -5.03

====

Assay: Human HepG2 cell viability assay in 384 well format
Assay type: toxicity, cell-based
Set-up: dose 125 nL, time 70.5 hour; concentration not given beside the values
Details: HepG2 cells, read-out: Inhibition
EXPERIMENTAL ENDPOINT: cytotoxicity at 70.5 h (%)
Reply with just the number (in %).

Example results:
* Cc1ccoc1C(=O)N1CC(C(=O)N2CCOCC2)C2(CCOCC2)C1 (configuration not stated) | 15.4
* CCC(C)(C)n1nnnc1C(c1cccs1)N1CCCCC1 (configuration not stated) | -3.15
* Cc1nc([C@H]2C[C@H]3CN(C(=O)c4ccoc4C)CC[C@@H]3O2)no1 | -7.31
* COc1cccc(NC(=O)Nc2ccc3c(c2)CC(=O)N3)c1 | -16.9
* Cc1[nH]ccc1C(=O)N1CCOCC12CCCC2 | -0.873
* CC(C)c1noc(CCCC(=O)N2CCN(S(C)(=O)=O)CC2)n1 | -5.72
* Cn1ncc2c(=O)[nH]c(CN3CCc4ccccc4C3)nc21 | -15.9
* CS(=O)(=O)c1ccc(CNC[C@H]2COCc3nc4cccnc4n32)cc1 | -1.94

Query: Fill in the blank: the reported cytotoxicity at 70.5 h of CCOc1ccc(C(=O)N2CCCS2(=O)=O)cc1OC is ____.
Response: -4.2

Query: Fill in the blank: the reported cytotoxicity at 70.5 h of CN(Cc1ccon1)C(=O)C1CC(=O)N(Cc2cccnc2)C1 (configuration not stated) is ____.
Response: -7.61

Query: Fill in the blank: the reported cytotoxicity at 70.5 h of CN(Cc1ncnn1C)C(=O)c1ccccc1NCc1ccccc1 is ____.
Response: 8.8

Query: Fill in the blank: the reported cytotoxicity at 70.5 h of N#Cc1ccc(F)c(CN2CCCC2Cn2cncn2)c1 (configuration not stated) is ____.
Response: -5.36

Query: Fill in the blank: the reported cytotoxicity at 70.5 h of CC(C)N1CCC(NC(=O)NCCC(=O)NCc2ccccc2)C1 (configuration not stated) is ____.
Response: 10.4

====

Assay: Human HepG2 cell viability assay in 384 well format
Assay type: toxicity, cell-based
Set-up: dose 125 nL, time 70.5 hour; concentration not given beside the values
Conditions: HepG2 cells, read-out: Inhibition
Entries and their cytotoxicity at 70.5 h values follow.
Reply with just the number (in %).

Example results:
* Cc1nc2n(n1)CC(NCc1nc(C)c(C)o1)CC2 (stereo not drawn) | -0.801
* CN1CCN(S(=O)(=O)c2cccc(S(=O)(=O)C3CCS(=O)(=O)C3)c2)CC1 (stereo not drawn) | -11.1
* CN(C)C(CNCc1nc(-c2ccsc2)no1)c1cccs1 (stereo not drawn) | -8.94
* c1ccc(CSc2nnc(C3CC3)s2)nc1 | -7.57

Query: Fill in the blank: the reported cytotoxicity at 70.5 h of COC(=O)C(CO)NC(=O)c1cn(Cc2ccccc2F)nn1 (stereo not drawn) is ____.
Response: -8.74

====

Entries and their cytotoxicity at 70.5 h values follow.
Experiment: Human HepG2 cell viability assay in 384 well format
Assay type: toxicity, cell-based
Set-up: dose 125 nL, time 70.5 hour; concentration not given beside the values
Conditions: HepG2 cells, read-out: Inhibition
Reply with just the number (in %).

Example results:
- CCC1=N[C@@]2(CC[C@@H]3CN(S(C)(=O)=O)C[C@@H]32)C(=O)N1CC(C)C: -1.52
- c1cc(CN2C[C@@H]3OCCN(CCN4CCCC4)[C@@H]3C2)co1: -10.1
- COCCn1nc(C(=O)N(C)Cc2cnn(C)c2)ccc1=O: 42.3
- Cc1nc(CN2CCCCC2Cn2cccn2)nc2ccccc12 (centres undefined): -5.42
- CN1C(=O)CC(C(=O)O)C12CCN(Cc1ccc(F)c(Cl)c1)CC2 (centres undefined): 0.558
- O=C(Cn1cccn1)N(CCO)CCSc1ccc(Cl)cc1: -11.6
- O=C(NCC(=O)N1CCc2ccccc2C1)c1cnccn1: -6.74
- COCC(C)NC(=O)c1cc(C)n(-c2cccc(OC)c2)c1C (centres undefined): -5.2
- CCCn1cc(-c2cc(C(=O)N(C)C)c3ccc(C)cc3n2)cn1: -9.76
- Cn1nnnc1SCCNC(=O)c1cccc2ccnn12: 3.9

Query: Fill in the blank: the reported cytotoxicity at 70.5 h of COc1c(CNCCC(=O)Nc2cccc(C)n2)c(C)nn1C is ____.
Response: -1.12

Query: Fill in the blank: the reported cytotoxicity at 70.5 h of Cc1cc(N(C)CC2COc3ccccc3O2)nc(C)n1 (centres undefined) is ____.
Response: 9.74

Query: Fill in the blank: the reported cytotoxicity at 70.5 h of CC(C)(C)c1n[nH]c(C2CN(Cc3nnc(C4CCC4)o3)CCO2)n1 (centres undefined) is ____.
Response: -2.38

Query: Fill in the blank: the reported cytotoxicity at 70.5 h of c1cc2cc[nH]c2c(CC2CN(Cc3cncs3)C2)n1 is ____.
Response: 7.7

Query: Fill in the blank: the reported cytotoxicity at 70.5 h of Cc1ccccc1N1CC2(CCN(S(=O)(=O)c3cccs3)C2)CC1=O (centres undefined) is ____.
Response: 14

Query: Fill in the blank: the reported cytotoxicity at 70.5 h of CN1CCO[C@@H]2CN(S(=O)(=O)c3cccs3)CC[C@@H]2C1 is ____.
Response: -9.31

Query: Fill in the blank: the reported cytotoxicity at 70.5 h of NC(=O)C1CCN(C(C(=O)O)c2ccc(Cl)c(C(F)(F)F)c2)CC1 (centres undefined) is ____.
Response: 13.4

Query: Fill in the blank: the reported cytotoxicity at 70.5 h of CNS(=O)(=O)c1cccc(CNC(=O)c2cc(C)no2)c1 is ____.
Response: 15.5

Query: Fill in the blank: the reported cytotoxicity at 70.5 h of CCOc1ncccc1CNC(=O)Nc1ccc(OC)c(OC)c1 is ____.
Response: -5.39

Query: Fill in the blank: the reported cytotoxicity at 70.5 h of COc1cc(C2(C(=O)NCC(=O)NC3CC3)CC2)ccc1C is ____.
Response: -5.44

Query: Fill in the blank: the reported cytotoxicity at 70.5 h of CCc1ncc(C(=O)NCCNc2ccncc2)s1 is ____.
Response: -0.807
